All values here come from paper PMC9482650.

SYSTEM: T1, RHPN1, Q8TCX5
T1 sequence (Q8TCX5 508-602, limits assumed, looked up): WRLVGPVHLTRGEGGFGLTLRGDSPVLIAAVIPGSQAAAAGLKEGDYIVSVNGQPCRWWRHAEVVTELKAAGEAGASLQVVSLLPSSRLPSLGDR
EXPERIMENT_SUMMARY: holdup assay
Set-up: key: below the threshold = too weak to quantify, mostly under pKd 3.1 to 4
SETTINGS: plain residues with an end cap or a label only (N-terminal biotin on a linker: ado-ado)
TEST_READOUT: pKd

> print(dat)
                         binder          assay.value
1    EIPAQSPTCV [FZD10, Q9ULW2]  below the threshold
2      EPQYQPGENL [SRC, P12931]  below the threshold
3  PSHPRLQTHV [KIRREL2, Q6UWL6]                 4.11
